Test: Half-life in C57BL/6 mouse brain at 10 mg/kg, po measured upto 24 hrs by LC-MS/MS analysis
Assay type: ADME, organism-based
readoutType: half-life (h)

# entrySmiles, numericValue
measured = [
    ("Cc1cc(F)cc(Nc2ncc(Nc3ccc(SC(F)(F)F)cc3)cc2C(N)=O)c1", 8.46),
]

* * *

Experiment: AUC(0 to t) in C57BL/6 mouse brain at 10 mg/kg, po measured upto 24 hrs by LC-MS/MS analysis
Format: ADME, organism-based

# entrySmiles, AUC(0-t) at 24 h (ng·h/mL)
records = [
    ("Cc1cc(F)cc(Nc2ncc(Nc3ccc(SC(F)(F)F)cc3)cc2C(N)=O)c1", 2970),
]
